Measured LD50 at 48 h, listed per entry for reference.
Assay: Acute toxicity (LD50) in mice
Conditions: mouse, in vivo, ip, intraperitoneal, mortality at 48 hours
observation-type: LD50 at 48 h (mg/kg)

INSERT INTO assay_data (molecule, value_units, meas_value) VALUES
  ('CNCC1CCc2ccccc2N(C)C1 (stereo not drawn)', 'mg/kg', 250),
  ('CNCC1CCc2ccccc2NC1.Cl.Cl (stereo not drawn)', 'mg/kg', 250),
  ('NC1CCc2ccccc2NC1 (stereo not drawn)', 'mg/kg', 300),
  ('CNC1CCc2ccccc2N(C)C1 (stereo not drawn)', 'mg/kg', 150),
  ('NCC1CCc2ccccc2NC1.O=C(O)/C=C/C(=O)O (stereo not drawn)', 'mg/kg', 300),
  ('CNC1CCc2ccccc2NC1 (stereo not drawn)', 'mg/kg', 250);

Ref: patent US4100278A
